Reference source for all entries: paper PMC12152147

# Test system: primary AML specimens
# runDescription: Dose-response assays in primary AML specimens (6 days, CellTiterGlo)
# Assay type: cell-based, human
# testContext: Homo sapiens, 144 h, primary AML specimen 03H109; 6 days; read-out: IC50
Overview of reported IC50 across a group of molecules:
Use nM as the unit, but write only the number.

Worked set:
CC(C)(C)c1cnc(CSc2cnc(NC(=O)C3CCNCC3)s2)o1 [SNS-032]; 97.3
CN(C)c1ccc(CC(=O)Nc2ncc(SCc3cccnc3)s2)cc1 [S656]; 761
CN(C)C/C=C/C(=O)Nc1ccc(C(=O)N2CCC[C@@H](Nc3ncc(Cl)c(-c4c[nH]c5ccccc45)n3)C2)cc1 [THZ531]; 48.9

Kindly review the next molecule as well.
Query :: Given the entry Cn1cc(-n2cnc3c(NCc4nc5cc(Cl)c(Cl)cc5[nH]4)nc(N4CCOCC4)nc32)cn1 [SR4835] , report its measured IC50.
Result :: 23.9
